# Tested on: CCRIS mutagenicity, Ames/micronucleus/aberration tests
# Measurement notes: CCRIS mutagenicity studies
# Test conditions: Test System: AMES SALMONELLA TYPHIMURIUM; Strain/Indicator: TA98; Metabolic Activation: RAT, LIVER, S-9, AROCLOR 1254 (10%); Method: STANDARD PLATE
Calls of active or inactive are those of the source. No rule for the calls is given here.
Measured metric: mutagenic call

ClC/C=C/CCl : active; positive
CN(C)c1ccc(/C=C/c2ccc([N+](=O)[O-])cc2)cc1 : active; positive
CCC1CCC(CCC(=O)[O-])C1.CCC1CCC(CCC(=O)[O-])C1.[Co+2] (centres undefined) : active; positive

----------
# System: CCRIS mutagenicity, Ames/micronucleus/aberration tests
# Measurement notes: CCRIS mutagenicity studies
# Test conditions: Test System: AMES SALMONELLA TYPHIMURIUM; Strain/Indicator: TA100; Metabolic Activation: NONE; Method: STANDARD PLATE
Active and inactive are the calls of the source. No rule for the calls is given here.
Hi! Could you answer with just one of these? y (active), n (inactive)

Just curious, what result did CC(=O)Oc1ccccc1C(=O)Oc1ccccc1C(=O)O get here?
n

Just curious, what result did C=CC(=O)OCC(C)(C)COC(=O)C=C get here?
n

Just curious, what result did O=C(/C=C/c1ccc(F)cc1)c1ccccc1 get here?
n

Just curious, what result did COc1nsc2ccc(OCC3CO3)cc12 (centres undefined) get here?
y

Just curious, what result did C=C(C#N)C(=O)OC get here?
y

Just curious, what result did CNNCc1ccc(C(=O)NC(C)C)cc1 get here?
n

Just curious, what result did CNc1ncn(C)c1C(=O)N(C)N=O get here?
n

Just curious, what result did Cc1ccccc1C get here?
n

Just curious, what result did O=C1NC(=O)C(CCl)=C1Cl get here?
y

Just curious, what result did C=C(C)C(=O)OCCCCC get here?
n

Just curious, what result did Cc1ccccn1 get here?
n

Just curious, what result did C[C@@H](Br)C(=O)NCc1ccccc1 get here?
y

Just curious, what result did [N-]=[N+]=NC[C@H]1O[C@H](O)[C@H](O)[C@@H](O)[C@@H]1O get here?
y

Just curious, what result did CN1Cc2c(N)cccc2C(c2ccccc2)C1 (centres undefined) get here?
n

----------
# Test system: CCRIS mutagenicity, Ames/micronucleus/aberration tests
# Measurement notes: CCRIS mutagenicity studies
# Test conditions: Test System: AMES SALMONELLA TYPHIMURIUM; Strain/Indicator: TA97; Metabolic Activation: RAT, LIVER, S-9, AROCLOR 1254; Method: STANDARD PLATE
Activity calls are given as the source filed them. How the calls were made is not given here.
Hi! Could you answer with just one of these? active, inactive

Just curious, what result did CC(=O)Oc1ccccc1C(=O)Oc1ccccc1C(=O)O get here?
inactive

Just curious, what result did CN(C)P(=O)(N(C)C)N(C)C get here?
inactive

Just curious, what result did CCC(=O)N(O)c1ccc(Cl)c(Cl)c1 get here?
inactive

Just curious, what result did ClC=C(Cl)Cl get here?
active

Just curious, what result did O=C1CNC(=O)N1 get here?
inactive

Just curious, what result did NCCc1cnc[nH]1 get here?
inactive

Just curious, what result did COC(=O)Nc1nc2ccc(Sc3ccccc3)cc2[nH]1 get here?
inactive

Just curious, what result did CC1(C)CC[C@]2(C(=O)O)CC[C@]3(C)C(=CC[C@@H]4[C@@]5(C)C[C@H](O)[C@H](O[C@@H]6O[C@H](CO)[C@@H](O)[C@H](O)[C@H]6O)C(C)(C(=O)O)C5CC[C@]43C)[C@H]2C1 (stereo not given in full) get here?
inactive

Just curious, what result did CCBr get here?
active

Just curious, what result did CC1=CC(=C(C#N)C#N)C=C(C=Cc2ccc(N(C)C)cc2)O1 get here?
active

----------
# Tested on: CCRIS mutagenicity, Ames/micronucleus/aberration tests
# Measurement notes: CCRIS mutagenicity studies
# Test conditions: Test System: AMES SALMONELLA TYPHIMURIUM; Strain/Indicator: TA100; Metabolic Activation: RAT, LIVER, S-9, PHENOBARBITAL AND 5,6-BENZOFLAVONE; Method: PREINCUBATION
Active and inactive are the calls of the source. No rule for the calls is given here.
Hi! Could you answer with just one of these? active, inactive

Just curious, what result did O=C1C=CC(=O)c2c(O)ccc(O)c21 get here?
active

Just curious, what result did Fc1ccc2ncccc2c1 get here?
active

Just curious, what result did Fc1cccc2cccnc12 get here?
active

Just curious, what result did Nc1cccc([N+](=O)[O-])c1CO get here?
inactive

Just curious, what result did O=C(O)/C=C\C(=O)O get here?
inactive

Just curious, what result did Cc1c(F)c(N2CCNC(C)C2)cc2c1c(=O)c(C(=O)O)cn2C1CC1 (centres undefined) get here?
inactive

Just curious, what result did O=[N+]([O-])c1ccc2ccc3cccc4c3c2c1C1OC41 (centres undefined) get here?
inactive

Just curious, what result did c1cnc2c(c1)ccc1c2ccc2cccnc21 get here?
active

Just curious, what result did Fc1cnc2c(ccc3ccccc32)c1 get here?
inactive

----------
# System: CCRIS mutagenicity, Ames/micronucleus/aberration tests
# Measurement notes: CCRIS mutagenicity studies
# Test conditions: Test System: AMES SALMONELLA TYPHIMURIUM; Strain/Indicator: TA100; Metabolic Activation: RAT, LIVER, S-9, PHENOBARBITAL AND BETA-NAPHTHOFLAVONE; Method: PREINCUBATION
Activity calls are given as the source filed them. No rule for the calls is given here.
Hi! Could you answer with just one of these? true (1) for active, false (0) for inactive

Just curious, what result did O=C(Br)CBr get here?
false (0)

Just curious, what result did C[C@H]1COc2c(N3CCN(C)CC3)c(F)cc3c(=O)c(C(=O)O)cn1c23 get here?
false (0)

Just curious, what result did COc1cc2c(cc1O)CC1c3c(cc(OC)c(O)c3-2)CC[N+]1(C)C (stereo not drawn) get here?
false (0)

Just curious, what result did COc1cc2c(cc1OC)-c1c3c(cc4c1[C@H](C2)N(C)CC4)OCO3 get here?
true (1)

Just curious, what result did CCN(CC)CCCC(C)Nc1cc(OC)cc2cccnc12 (stereo not drawn) get here?
false (0)

Just curious, what result did [Cl][Cr]([Cl])[Cl] get here?
false (0)

Just curious, what result did COc1ccc2c(c1)-c1c(OC)c(OC)cc3c1C(C2=O)N(C)CC3 (stereo not drawn) get here?
false (0)

Just curious, what result did C[C@@H]1COc2c(N3CCN(C)CC3)c(F)cc3c(=O)c(C(=O)O)cn1c23 get here?
false (0)

----------
# System: CCRIS mutagenicity, Ames/micronucleus/aberration tests
# Measurement notes: CCRIS mutagenicity studies
# Test conditions: Test System: AMES SALMONELLA TYPHIMURIUM; Strain/Indicator: TA98; Metabolic Activation: RAT, LIVER, S-9, AROCLOR 1254; Method: STANDARD PLATE
Activity calls are given as the source filed them. How the calls were made is not given here.
Hi! Could you answer with just one of these? active, inactive

Just curious, what result did O=C(O)/C=C\C(=O)O get here?
inactive

Just curious, what result did CC1(C)CC[C@]2(C(=O)O)CC[C@]3(C)C(=CC[C@@H]4[C@@]5(C)C[C@H](O)[C@H](O[C@@H]6O[C@H](CO)[C@@H](O)[C@H](O)[C@H]6O)C(C)(C(=O)O)C5CC[C@]43C)[C@H]2C1 (stereo not given in full) get here?
inactive

Just curious, what result did BrCCBr get here?
active

Just curious, what result did C[C@]12CC[C@H](OC(=O)COc3ccc(N(CCCl)CCCl)cc3)C[C@@H]1CC[C@@H]1[C@@H]2CC[C@]2(C)NC(=O)CC[C@@H]12 get here?
inactive

Just curious, what result did O=S(=O)(Nc1cccc(Cl)c1)c1cccc2cccnc12 get here?
inactive

----------
# Tested on: CCRIS mutagenicity, Ames/micronucleus/aberration tests
# Measurement notes: CCRIS mutagenicity studies
# Test conditions: Test System: AMES SALMONELLA TYPHIMURIUM; Strain/Indicator: TA1535; Metabolic Activation: RAT, LIVER, S-9, AROCLOR 1254; Method: STANDARD PLATE
Active and inactive are the calls of the source. The rule behind the calls is not given here.
Hi! Could you answer with just one of these? y (active), n (inactive)

Just curious, what result did Oc1ccc(-c2ccccc2)cc1 get here?
n

Just curious, what result did Nc1ccc(S(N)(=O)=O)cc1 get here?
n

Just curious, what result did O=P1(NCCCl)OCCCN1CCCl (centres undefined) get here?
y

Just curious, what result did CCCCCCCCCCCCS get here?
n

----------
# System: CCRIS mutagenicity, Ames/micronucleus/aberration tests
# Measurement notes: CCRIS mutagenicity studies
# Test conditions: Test System: AMES SALMONELLA TYPHIMURIUM; Strain/Indicator: TA98; Metabolic Activation: NONE
# Description: The CCRIS database contains chemical records with carcinogenicity, mutagenicity, tumor promotion, and tumor inhibition test results. It was developed by the National Cancer Institute (NCI). Data are derived from studies cited in primary journals, current awareness tools, NCI reports, and other sources. Test results have been reviewed by experts in carcinogenesis and mutagenesis. CCRIS provides historical information from the years 1985 - 2011. It is no longer updated. […]
Activity calls are given as the source filed them. How the calls were made is not given here.
Hi! Could you answer with just one of these? active, inactive

Just curious, what result did CCCCCCC(=O)OCCN1CCN(CCCN2c3ccccc3Sc3ccc(C(F)(F)F)cc32)CC1 get here?
inactive

Just curious, what result did NC(Cc1ccc(Cl)cc1)C(=O)O (stereo not drawn) get here?
inactive

Just curious, what result did CC(=O)OCC(=O)[C@@]1(OC(C)=O)CC[C@H]2[C@@H]3C[C@@H](F)C4=CC(=O)C(Br)=C[C@]4(C)[C@@]3(F)[C@@H](O)C[C@@]21C get here?
inactive

Just curious, what result did COP(=S)(OC)Oc1nc(Cl)c(Cl)cc1Cl get here?
inactive

Just curious, what result did CCOC(=O)[C@H](CCc1ccccc1)N[C@@H](C)C(=O)N(CC(=O)O)C1Cc2ccccc2C1 get here?
inactive

Just curious, what result did COC(C)(C)C get here?
inactive

Just curious, what result did O=[N+]([O-])c1ccc2c(c1)-c1ccc([N+](=O)[O-])c3cccc-2c13 get here?
active

Just curious, what result did O=c1oc2ccccc2c(O)c1C1CCCc2ccccc21 (stereo not drawn) get here?
inactive
